Biological target: T1, 4H3782-bA
T1 chain: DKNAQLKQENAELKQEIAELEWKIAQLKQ
Assay: two-hybrid library CCNG1;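 note: natural log of median RNA to DNA barcode read ratio; higher means stronger binding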
METRIC NAME: interaction score

DKNAQLEQKIAELKQKIAELEWENAQLEQ [4H3427-bA]: -0.499
DKNAQLEQKIAELEQENAELKWEIAQLKQ [4H3354-bA]: -0.851
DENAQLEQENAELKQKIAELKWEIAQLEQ [4H1257-bA]: 2.01
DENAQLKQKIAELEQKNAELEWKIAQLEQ [4H1845-bA]: -0.678

[a] DENAQLEQKIAELKQENAELKWEIAQLEQ [4H1369-bA]
[b] DEIAQLEQKIAELKQKNAELEWEIAQLKQ [4H370-bA]
# min-compare on interaction score between a and b Respond with the label that goes with your answer.
a

[a] DKNAQLEQEIAELKQKNAELEWKIAQLEQ [4H3189-bA]
[b] DKIAQLKQENAELEQEIAELKWEIAQLEQ [4H2697-bA]
Hi there, can you help? I need to know whether a or b has lower measured interaction score. // return label of chosen record
a
(a: -0.906, b: 0.993)

[P] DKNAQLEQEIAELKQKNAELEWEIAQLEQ [4H3185-bA]
[Q] DKIAQLKQEIAELEQKNAELKWEIAQLKQ [4H2618-bA]
Smaller interaction score value, P vs Q ? The response must carry the label of the picked entry.
P
